Tested on: C2A
measurement.notes: qHTS profiling for inhibitors of Plasmodium falciparum proliferation (AID 504749); note: nearly all actives have a fitted effect of over 60% in size
test.context: P. falciparum in erythrocytes, SYBR Green DNA, 72 h; series mostly up to 28.7 µM
Records with an inconclusive call do not appear. Active and inactive are the calls of the source. Calls come from the whole dose curve; as a rule, active = well fitted inhibition curve with a large enough effect; inconclusive = small, poorly fitted or top-dose-only effect; inactive = flat fitted curve, though single readings scatter.
Classes used: active, inactive

[[record]]
compound = "C[C@@H](C(=O)O)c1ccc(-c2ccccc2)c(F)c1"
category_label = "inactive"

[[record]]
compound = "CC(C)(O)c1ccccc1CC[C@H](SCC1(CC(=O)O)CC1)c1cccc(/C=C/c2ccc3ccc(Cl)cc3n2)c1"
category_label = "inactive"

[[record]]
compound = "CC(C)C[C@@H](NC(=O)[C@H](Cc1ccccc1)NC(=O)c1cnccn1)B(O)O"
category_label = "active"

[[record]]
compound = "COC(=O)[C@@H]1[C@@H]2C[C@H]3c4[nH]c5ccccc5c4CCN3C[C@@H]2CC[C@@H]1O"
category_label = "inactive"

[[record]]
compound = "O=C1c2cccc3c2[C@@H](CCC3)CN1[C@@H]1CN2CCC1CC2"
category_label = "inactive"

[[record]]
compound = "CC(=O)[C@H]1CC[C@H]2C3CC=C4C[C@@H](O)CC[C@]4(C)C3CC[C@]12C (stereo partly specified)"
category_label = "inactive"


----------
experimental.target: Ubiquitin carboxyl-terminal hydrolase 1 (Homo sapiens) (UniProt O94782)
Sequence (O94782 whole entry, looked up): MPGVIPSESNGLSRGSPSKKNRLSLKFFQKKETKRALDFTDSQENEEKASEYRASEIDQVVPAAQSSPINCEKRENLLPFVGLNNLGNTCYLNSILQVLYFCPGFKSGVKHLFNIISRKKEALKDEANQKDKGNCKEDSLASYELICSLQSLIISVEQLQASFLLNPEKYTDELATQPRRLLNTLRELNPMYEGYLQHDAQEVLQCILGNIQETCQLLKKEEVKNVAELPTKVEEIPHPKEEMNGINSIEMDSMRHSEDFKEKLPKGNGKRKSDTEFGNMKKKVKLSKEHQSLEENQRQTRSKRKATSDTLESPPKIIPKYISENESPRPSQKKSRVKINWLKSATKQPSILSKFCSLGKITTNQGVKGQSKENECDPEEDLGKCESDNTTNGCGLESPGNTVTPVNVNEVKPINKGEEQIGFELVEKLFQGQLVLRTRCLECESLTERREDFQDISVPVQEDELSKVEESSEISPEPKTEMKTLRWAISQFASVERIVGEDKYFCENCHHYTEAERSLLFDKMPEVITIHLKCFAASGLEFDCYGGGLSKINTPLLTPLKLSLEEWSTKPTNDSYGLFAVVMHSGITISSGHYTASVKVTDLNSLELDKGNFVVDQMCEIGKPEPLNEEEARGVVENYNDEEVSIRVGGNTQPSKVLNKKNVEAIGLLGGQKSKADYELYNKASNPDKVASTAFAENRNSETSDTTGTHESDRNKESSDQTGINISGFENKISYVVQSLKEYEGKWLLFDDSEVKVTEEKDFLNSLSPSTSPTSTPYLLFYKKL
measurement.notes: Inhibitors of USP1/UAF1: Pilot qHTS (AID 504865); note: nearly all actives have a fitted effect of over 35% in size
test.context: purified USP1/UAF1, Ub-rhodamine cleavage fluorescence; series mostly up to 114 µM
Inconclusive results are not listed. The source made the active and inactive calls. Calls come from the whole dose curve; as a rule, active = well fitted inhibition curve with a large enough effect; inconclusive = small, poorly fitted or top-dose-only effect; inactive = flat fitted curve, though single readings scatter. Residues, ends and D or L forms follow the SMILES beside them.
Classes used: active, inactive

[[record]]
compound = "NC1=NCCCC1"
category_label = "inactive"

[[record]]
compound = "C=C[C@@]1(C)CC(=O)[C@@]2(O)[C@@]3(C)[C@@H](O)CCC(C)(C)[C@@H]3[C@H](O)[C@H](OC(C)=O)[C@@]2(C)O1"
category_label = "inactive"

[[record]]
compound = "O=C(O)Cc1cc(I)c(Oc2cc(I)c(O)c(I)c2)c(I)c1"
category_label = "inactive"

[[record]]
compound = "N[C@H](C(=O)O)c1cccc(O)c1"
category_label = "inactive"

[[record]]
compound = "COC(=O)[C@H]1[C@@H]2C[C@H]3c4[nH]c5ccccc5c4CCN3C[C@@H]2CC[C@@H]1O"
category_label = "inactive"

[[record]]
compound = "CC(C)[C@@H]1C(=O)N(S(C)(=O)=O)[C@H]2CCN(C(=O)/C=C\\CN3CCCCC3)[C@@H]12"
category_label = "inactive"

[[record]]
compound = "COc1ccc(NS(=O)(=O)c2ccc(I)cc2)cc1N1CCN(C)CC1"
category_label = "inactive"

[[record]]
compound = "CCCn1c(=O)c2[nH]c(-c3ccc(OCC(=O)Nc4ccc(C(C)=O)cc4)cc3)nc2n(CCC)c1=O"
category_label = "inactive"

[[record]]
compound = "N[C@](CC1c2ccccc2Oc2ccccc21)(C(=O)O)[C@@H]1C[C@@H]1C(=O)O"
category_label = "inactive"

[[record]]
compound = "NCCCCNS(=O)(=O)c1ccc2c(Cl)cccc2c1"
category_label = "inactive"

[[record]]
compound = "CC(C)(C)NC[C@H](O)c1ccc(O)c(CO)c1"
category_label = "inactive"

[[record]]
compound = "CC[C@](N)(CCC(=O)O)C(=O)O"
category_label = "inactive"

[[record]]
compound = "CCCCN1CCC[C@@H]1CNC(=O)c1cc(C#N)c2ccccc2c1OC"
category_label = "inactive"

[[record]]
compound = "N[C@@H](Cn1cc(F)c(=O)[nH]c1=O)C(=O)O"
category_label = "inactive"

[[record]]
compound = "C/C=C1\\C2C=C(C)CC1(N)c1ccc(=O)[nH]c1C2 (stereo not drawn)"
category_label = "inactive"

[[record]]
compound = "Nc1ncnc2c1ncn2[C@@H]1O[C@H](COP(=O)(O)OP(=O)(O)O)[C@@H](O)[C@H]1O"
category_label = "inactive"

[[record]]
compound = "C=CC1=C(C)C2=NC1=CC1=NC(=CC3=NC(=CC4=NC(=C2)C(C)=C4CCC(=O)O)C(CCC(=O)O)=C3C)C(C=C)=C1C.[Zn]"
category_label = "active"

[[record]]
compound = "O=C(O)[C@H]1CN(CCCP(=O)(O)O)CCN1"
category_label = "inactive"

[[record]]
compound = "OC[C@@H]1O[C@@H](n2cnc3c(N[C@H]4CCC[C@@H]4O)ncnc32)[C@H](O)[C@H]1O"
category_label = "inactive"

[[record]]
compound = "OC[C@@H](O)COc1cccc2ccccc12"
category_label = "inactive"

[[record]]
compound = "COc1ccc2[nH]cc(CC(N)C(=O)O)c2c1 (stereo not drawn)"
category_label = "inactive"

[[record]]
compound = "c1ccc2oc(C3=NCCN3)cc2c1"
category_label = "inactive"

[[record]]
compound = "C[N+](C)(CCCCCC[N+](C)(C)CCCN1C(=O)c2ccccc2C1=O)CCCN1C(=O)c2ccccc2C1=O"
category_label = "inactive"

[[record]]
compound = "NCCC(=O)O"
category_label = "inactive"

[[record]]
compound = "CCNC(=O)[C@H]1O[C@H](n2cnc3c(N)nc(NCCc4ccc(CCC(=O)O)cc4)nc32)[C@@H](O)[C@@H]1O"
category_label = "inactive"

[[record]]
compound = "N[C@@H](Cn1ccc(=O)n(Cc2ccccc2C(=O)O)c1=O)C(=O)O"
category_label = "inactive"

[[record]]
compound = "CCCCCCCCCCCC(=O)O[C@H](CC(=O)O)C[N+](C)(C)C"
category_label = "inactive"

[[record]]
compound = "C[C@@](N)(C(=O)O)c1ccc(P(=O)(O)O)cc1"
category_label = "inactive"

[[record]]
compound = "CCC(=O)O[C@H](CC(=O)O)C[N+](C)(C)C"
category_label = "inactive"

[[record]]
compound = "CC(C)=CCC/C(C)=C/CC/C(C)=C/CO"
category_label = "inactive"

[[record]]
compound = "NC(N)=NCCC[C@@H](N)C(=O)O"
category_label = "inactive"

[[record]]
compound = "CCCN=C(N)NCCC[C@H](N)C(=O)O"
category_label = "inactive"

[[record]]
compound = "CC(=O)NCC(=O)N[C@H](CCC(=O)O)C(=O)O (HELM PEPTIDE1{[ac].G.[dE]}$$$$V2.0)"
category_label = "inactive"

[[record]]
compound = "C=C[C@@]1(C)CC(=O)[C@@]2(O)[C@@]3(C)[C@@H](O)CCC(C)(C)[C@@H]3[C@H](OC(=O)CCN(C)C)[C@H](OC(C)=O)[C@@]2(C)O1"
category_label = "inactive"

[[record]]
compound = "CCOc1nc2cccc(C(=O)OC(C)OC(=O)OC3CCCCC3)c2n1Cc1ccc(-c2ccccc2-c2nn[nH]n2)cc1 (stereo not drawn)"
category_label = "active"

[[record]]
compound = "CC[C@]1(c2ncc[nH]2)Cc2ccccc2O1"
category_label = "inactive"

[[record]]
compound = "O=c1[nH]c2cc(Cl)ccc2c(O)c1-c1cccc(Oc2ccccc2)c1"
category_label = "inactive"

[[record]]
compound = "CCOC(OCC)P(=O)(O)CCCNCc1ccc(Cl)c(Cl)c1"
category_label = "inactive"

[[record]]
compound = "O=C1c2ccccc2C(Cc2ccncc2)(Cc2ccncc2)c2ccccc21"
category_label = "inactive"

[[record]]
compound = "CC1(COc2ccc(C[C@H]3SC(=O)NC3=O)cc2)CCCCC1"
category_label = "active"

[[record]]
compound = "Cc1ncc2c(c1O)COP(=O)(O)OC2"
category_label = "inactive"

[[record]]
compound = "CCCCCCCCCC(=O)O[C@H](CC(=O)O)C[N+](C)(C)C"
category_label = "inactive"

[[record]]
compound = "N[C@H](C(=O)O)c1ccc(C(=O)O)cc1"
category_label = "inactive"

